Just for reference, patent US20210380703A1 is where these values come from.

# Target Desc: human Fc (human)
# Experiment Description: ELISA, negative control
Exercise: for every item that follows, state its recorded optical density.
Output spec: scalar in OD, unitless text.

Query string: Which optical density value belongs to 365_E03 (antibody, V domains shown) VH: EVQLLESGGGLVQPGGSLRLSCAASGFTFDSYSMNWVRQAPGKGLEWVSNINYNGGYTGYADSVKGRFTISRDNSKNTLYLQMNSLRAEDTAVYYCARSATWHDTHLDYWGQGTLVTVSS VL: DIQMTQSPSSLSASVGDRVTITCRASQSILTYVNWYQQKPGKAPKLLIYAATSLHSGVPSRFSGSGSGTDFTLTISSLQPEDFATYYCQQSDERPLTFGGGTKVEIK ?
Result string: 0.314

Query string: Here is the next binder: 367_F06 (antibody, V domains shown) VH: EVQLLESGGGLVQPGGSLRLSCAASGFTFSSYGMNWVRQAPGKGLEWVSSINYNSGYTSYADSVKGRFTISRDNSKNTLYLQMNSLRAEDTAVYYCARAANWHDTALDYWGQGTLVTVSS VL: DIQMTQSPSSLSASVGDRVTITCRASQSISSYVNWYQQKPGKAPKLLIYAVTSRASGVPSRFSGSGSGTDFTLTISSLQPEDFATYYCQQSYDSPLTFGGGTKVEIK
Result string: 0.265
